Assayed System: IDH R132C (Homo sapiens, UniProt O75874, R132C)
Construct: expressed in transfected cells; host or cells: U87 cells
Sequence (O75874 whole entry R132C): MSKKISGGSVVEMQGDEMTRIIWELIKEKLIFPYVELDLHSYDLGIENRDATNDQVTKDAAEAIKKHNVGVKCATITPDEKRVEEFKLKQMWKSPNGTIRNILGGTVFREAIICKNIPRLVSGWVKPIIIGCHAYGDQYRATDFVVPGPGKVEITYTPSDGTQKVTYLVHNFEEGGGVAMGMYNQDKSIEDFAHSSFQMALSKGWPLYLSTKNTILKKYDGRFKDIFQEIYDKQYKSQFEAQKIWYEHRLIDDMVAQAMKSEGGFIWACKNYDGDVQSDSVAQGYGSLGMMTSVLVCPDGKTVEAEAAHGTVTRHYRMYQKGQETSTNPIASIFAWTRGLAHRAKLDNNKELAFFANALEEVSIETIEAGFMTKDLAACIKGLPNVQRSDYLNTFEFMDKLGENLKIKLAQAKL
Measurement Notes: Detection of 2-HG in supernatant of U87-IDH R132C cells
Assay type: cell-based
Run Conditions: 10 nM compound, 72 h, LC-MS-MS, vs control; read-out: Inhibition rate of compounds on 2-HG in the supernatant of U87-IDH R132C cells, 10 nM
Kindly supply the reported inhibition at 0.01 µM values for the records listed here.

Which inhibition at 0.01 µM is reported for this molecule? C=CC(=O)N1CC2(C1)CN(C(CC1CC1)c1ccc([C@H](C)Nc3ncc4c(n3)N(CCC)C(=O)OC4)cc1)C2 (stereo partly shown)
60 to 90%

Any idea what its inhibition at 0.01 µM is? The molecule is C=CC(=O)N1CCN(C(CC2CC2)c2ccc([C@H](C)Nc3ncc4c(n3)N(C(C)C)C(=O)OC4)cc2)CC1 (stereo partly shown)
> 90%

Can you look up the measured inhibition at 0.01 µM of C=CC(=O)N1CCN([C@@H](CC2CC2)c2ccc([C@H](C)Nc3ncc4c(n3)N(C(C)C)C(=O)OC4)cc2)CC1 for me?
> 90%

Could you tell me which inhibition at 0.01 µM is on file for C=CC(=O)N1CCN(C(CC)c2ccc([C@H](C)Nc3ncc4cnc(=O)n(CC)c4n3)cc2)CC1 (stereo partly shown) ?
> 90%

For the molecule C=CC(=O)N1CC2(C1)CN(C(CC)c1ccc([C@H](C)Nc3ncc4c(n3)N(C(C)C)C(=O)OC4)cc1)C2 (stereo partly shown) , what inhibition at 0.01 µM is on record?
> 90%

If you can, please state the reported inhibition at 0.01 µM value of C=CC(=O)N1CCN([C@@H](CC2CC2)c2ccc([C@H](C)Nc3ncc4cnc(=O)n(CC)c4n3)cc2)CC1 .
> 90%

Which inhibition at 0.01 µM is listed for C=CC(=O)N1CCN([C@H](CC23CC(C2)C3)c2ccc([C@H](C)Nc3ncc4c(n3)N(CC)C(=O)NC4)cc2)CC1 ?
60 to 90%

Field request: inhibition at 0.01 µM | item: C=CC(=O)NC1CN(C(CC2CC2)c2ccc(C3(Nc4ncc5c(n4)N(CC)C(=O)OC5)CC3)cc2)C1 (stereo not shown)
60 to 90%

# query: inhibition at 0.01 µM of entry C=CC(=O)N1CCN(C(CC2CC2)c2ccc([C@H](C)Nc3ncc4c(n3)N(CC)C(=O)NC4)cc2)CC1 (stereo partly shown)
60 to 90%

Reported inhibition at 0.01 µM, molecule C=CC(=O)N1CCN(C(CC2CC2)c2ccc(C3(Nc4ncc5c(n4)N(C(C)C)C(=O)OC5)CC3)cc2)CC1 (stereo not shown) : ____
60 to 90%

Hey, just so you know, these numbers are from patent US12559505B2.
